System: SpTbr T-box DNA-binding domain (GST fusion);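 note: protein at 200 nM in PBS on universal double-stranded arrays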
Sequence: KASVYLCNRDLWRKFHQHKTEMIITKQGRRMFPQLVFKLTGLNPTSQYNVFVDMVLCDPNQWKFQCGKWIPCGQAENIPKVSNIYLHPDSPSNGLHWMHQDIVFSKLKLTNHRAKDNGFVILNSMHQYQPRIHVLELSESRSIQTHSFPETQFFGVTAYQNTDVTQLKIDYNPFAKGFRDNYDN
assay comment: PBM E-score of 8-mer (E-score (dimensionless, -0.5 to 0.5)); higher = stronger binding preference
reported conditions: the construct has about 5 more residues each side
Whole data set: some 33,000 sequences, median “E-score (dimensionless, -0.5 to 0.5)” near -0.046, cut for the highest 2% near 0.36. For the sample, the highest values were picked, then their nearest neighbours and some sequences at random.
Provide the recorded PBM E-score of 8-mer for the entries that follow.
One number for each entry.

Could you tell me PBM E-score of 8-mer for each of these sequences? They are listed below.
1. AACGCCTC
2. CTAAACCA
3. CGCACGTC
4. CGGGTGCC

### Response
0.35
-0.0751
0.331
0.18

Could you tell me PBM E-score of 8-mer for each of these sequences? They are listed below.
1. AACGCCTA
2. CACACGTC

### Response
0.298
0.451

* * *

Test system: SpTbr T-box DNA-binding domain (GST fusion);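 note: protein at 200 nM in PBS on universal double-stranded arrays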
Sequence: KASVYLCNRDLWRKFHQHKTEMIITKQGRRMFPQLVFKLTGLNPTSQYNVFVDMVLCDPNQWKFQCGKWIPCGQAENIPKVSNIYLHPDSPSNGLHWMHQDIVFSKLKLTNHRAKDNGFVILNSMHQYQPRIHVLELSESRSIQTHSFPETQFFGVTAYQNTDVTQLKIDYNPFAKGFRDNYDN
assay comment: PBM E-score of 8-mer (E-score (dimensionless, -0.5 to 0.5)); Tbr is Tbrain of the sea star Patiria miniata (Pm) or the sea urchin Strongylocentrotus purpuratus (Sp); higher = stronger binding preference
reported conditions: target sequence: T-box / the construct has about 5 more residues each side
In all, about 33,000 sequences were measured (“E-score (dimensionless, -0.5 to 0.5)”: median about -0.046, highest 2% from about 0.36 on). This is one part of a sample in which the highest values are shown more often than they occur.
parameter: PBM E-score of 8-mer
Give bare numbers.

Below, 6 sequences whose answers are already recorded.
| sequence record | PBM E-score of 8-mer |
| --- | --- |
| ACCGTTCC | -0.000825 |
| ACCTCACA | 0.411 |
| AATTGGAC | -0.187 |
| ACAGCTCC | 0.157 |
| GGTGAAAC | -0.0179 |
| GCACCTCC | 0.396 |

Could you tell me PBM E-score of 8-mer for each of these sequences? They are listed below.
1. CTTGACAA
2. CAACCCTG
3. CAGGTCAA
4. CCTACTAA

### Response
1: 0.323; 2: 0.014; 3: -0.18; 4: -0.0157

Could you tell me PBM E-score of 8-mer for each of these sequences? They are listed below.
1. TGCGTGAA
2. ACGCCTCT
3. CGTGTCTA
4. GGTGACCA
5. GCCTAAGA
6. AACCCCTG

### Response
[0.394, 0.304, 0.135, 0.075, -0.128, -0.108]

Could you tell me PBM E-score of 8-mer for each of these sequences? They are listed below.
1. CAGGGGTC
2. GCACCTCA
3. GTTGACAA
4. GGCGTGAC
5. ATACTAGA
6. AAGGGTAA
7. CGCGTGAG

### Response
1: -0.231; 2: 0.343; 3: 0.389; 4: 0.388; 5: -0.222; 6: -0.088; 7: 0.313
